Source: ChEMBL document CHEMBL1142256

For Glutamate carboxypeptidase 2 (Homo sapiens), measured IC50 is reported for the entries below.
State just the number; it will be interpreted in nM.

Recorded IC50, per entry:
CC(C)CCC[C@@H](C)[C@H]1CC[C@H]2[C@@H]3CCC4C[C@@H](OCCCOP(=O)(O)N[C@@H](CCC(=O)O)C(=O)O)CC[C@]4(C)[C@H]3CC[C@]12C (stereo partly specified) ... 125
C[C@]12CC[C@H](OCCCOP(=O)(O)N[C@@H](CCC(=O)O)C(=O)O)C[C@@H]1CC[C@@H]1[C@@H]2CC[C@]2(C)C(=O)CC[C@@H]12 ... 438
C[C@]12CC[C@@H]3c4ccc(OC(=O)c5ccccc5)cc4CC[C@H]3[C@@H]1CC[C@@H]2OCCCOP(=O)(O)N[C@@H](CCC(=O)O)C(=O)O ... 572
C[C@]12CC[C@H](OP(=O)(O)N[C@@H](CCC(=O)O)C(=O)O)C[C@@H]1CC[C@@H]1[C@@H]2CC[C@]2(C)C(=O)CC[C@@H]12 ... 569

Q. Param item = CC(C)CCC[C@@H](C)[C@H]1CC[C@H]2[C@@H]3CCC4C[C@@H](OP(=O)(O)N[C@@H](CCC(=O)O)C(=O)O)CC[C@]4(C)[C@H]3CC[C@]12C (stereo partly specified) ; retrieve measured IC50.
A. 435

Q. Could you do the same for C[C@]12CC[C@@H]3c4ccc(OCCCOP(=O)(O)N[C@@H](CCC(=O)O)C(=O)O)cc4CC[C@H]3[C@@H]1CCC2=O , please?
A. 140
